The measurements presented in this section are drawn from patent US20060074243A1.

Target: Human recombinant MMP-14 (Homo sapiens, UniProt P50281)
Construct: The catalytic domain enzyme was expressed in E. coli inclusion bodies, solubilized in urea; made in house
Assay: In vitro MMP inhibition analysis (fluorogenic peptide substrate cleavage), Ki
Format: biochemical
Conditions: Table 2
readout kind: Ki (µM)

smiles_text=O=C(NO)C1(S(=O)(=O)c2ccc(-c3cnc(OCC(F)(F)C(F)(F)F)cn3)cc2)CCN(C2CC2)CC1 numeric_value=1.14
smiles_text=O=C(NO)C1(S(=O)(=O)c2ccc(-c3ccc(CCCC(F)(F)F)cn3)cc2)CC=CC1 numeric_value=1.26
smiles_text=O=C(NCC1CC1)c1cnc(-c2ccc(S(=O)(=O)C3(C(=O)NO)CCOCC3)cc2)cn1 numeric_value=0.93

---

Target: Human recombinant MMP-1 (Homo sapiens, UniProt P03956)
Construct: made in house; host or cells: MMP-1-transfected HT-1080 cells (spent media)
Experiment: In vitro MMP inhibition analysis (fluorogenic peptide substrate cleavage), Ki
Format: biochemical
Conditions: Table 2
Experimental: Several compounds and salts were analyzed in an in vitro assay to determine their ability to inhibit the MMP cleavage of peptide substrates. Inhibition constant (Ki) were calculated from the assayed compound-MMP interactions. […] The assays from which the Ki determinations were made were performed as follows. […] In the absence of MMP inhibitory activity, substrate (I) was cleaved at the Gly-Leu bond resulting in an increase of relative fluorescence. […]
Below is a list of entries, each paired with its recorded Ki value.

smiles_text=O=C(NO)C1(S(=O)(=O)c2ccc(-c3ccccc3CO)cc2)CCOCC1 result="> 10 µM"
smiles_text=CO[C@H]1CC[C@](C(=O)NO)(S(=O)(=O)c2ccc(-c3cnc(CCC(F)(F)C(F)(F)F)cn3)cc2)CC1 result="> 10 µM"
smiles_text=CCN1CCC(C(=O)NO)(S(=O)(=O)c2ccc(-c3ccc(Oc4ccccc4)cc3)cc2)CC1 result="> 10 µM"
smiles_text=O=C(NO)C1(S(=O)(=O)c2ccc(-c3ccc(OCC(F)(F)C(F)(F)F)c(C(F)(F)F)c3)cc2)CCOCC1 result="> 10 µM"
smiles_text=O=C(NO)C1(S(=O)(=O)c2ccc(-c3cnc(-c4cccs4)cn3)cc2)CCOCC1 result="> 10 µM"

# input for lookup
// query Quick check: Ki of CCCCc1ccc(-c2ccc(S(=O)(=O)C3(C(=O)NO)CCN(CC)CC3)cc2)cn1 ?
// result > 10 µM

---

Target: Human recombinant MMP-9 (Homo sapiens)
Construct: made in house; host or cells: MMP-9-transfected HT1080 cells (spent media)
Sequence (P14780 107-707 limits assumed): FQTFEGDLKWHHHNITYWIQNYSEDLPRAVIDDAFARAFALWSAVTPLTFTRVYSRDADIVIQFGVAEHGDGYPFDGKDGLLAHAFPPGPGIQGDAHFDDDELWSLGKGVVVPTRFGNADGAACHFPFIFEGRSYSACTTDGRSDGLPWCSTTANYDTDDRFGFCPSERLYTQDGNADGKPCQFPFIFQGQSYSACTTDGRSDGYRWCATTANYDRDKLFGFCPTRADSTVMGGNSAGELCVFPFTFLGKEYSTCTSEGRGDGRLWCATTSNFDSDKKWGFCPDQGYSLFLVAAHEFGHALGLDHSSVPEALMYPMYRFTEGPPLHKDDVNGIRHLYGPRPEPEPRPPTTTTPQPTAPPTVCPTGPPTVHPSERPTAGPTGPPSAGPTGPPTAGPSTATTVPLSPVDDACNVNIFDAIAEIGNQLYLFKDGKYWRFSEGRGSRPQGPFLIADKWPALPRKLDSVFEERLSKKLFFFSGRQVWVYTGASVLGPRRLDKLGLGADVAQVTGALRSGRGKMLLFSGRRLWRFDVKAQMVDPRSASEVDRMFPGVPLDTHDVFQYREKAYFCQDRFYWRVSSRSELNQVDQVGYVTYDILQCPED
Assay: In vitro MMP inhibition analysis (fluorogenic peptide substrate cleavage), Ki
Assay type: biochemical
Settings: Table 1
pKi: −log10 of the molar value.
readout kind: pKi

Sample records with pKi:
smiles_text=CC(C)(C)N1CCC(C(=O)NO)(S(=O)(=O)c2ccc(-c3ccc(CCCC(F)(F)F)cc3)cc2)CC1 system_under_test="Human recombinant MMP-9 (Homo sapiens)" readout_kind=pKi numeric_value=8.45
smiles_text=CC(F)(F)CCc1cnc(-c2ccc(S(=O)(=O)C3(C(=O)NO)CCN(C4CC4)CC3)cc2)cn1 system_under_test="Human recombinant MMP-9 (Homo sapiens)" readout_kind=pKi numeric_value=9.51
smiles_text=O=C(NO)C1(S(=O)(=O)c2ccc(-c3ccc(OC(F)(F)C(F)F)cc3)cc2)CCN(CCl)CC1 system_under_test="Human recombinant MMP-9 (Homo sapiens)" readout_kind=pKi numeric_value=9.90
smiles_text=O=C(NO)C1(S(=O)(=O)c2ccc(-c3ccc(OC(F)(F)C(F)F)cc3)cc2)CCN(C2CC2)CC1 system_under_test="Human recombinant MMP-9 (Homo sapiens)" readout_kind=pKi numeric_value=9.99

[1] COCCN1CCC(C(=O)NO)(S(=O)(=O)c2ccc(-c3ccc(CCC(F)(F)C(F)(F)F)cc3)cc2)CC1
[2] O=C(NO)C1(S(=O)(=O)c2ccc(-c3cnc(CCC4CC4)cn3)cc2)CCOCC1
// query Returns: the argument ( 1 or 2 ) having the larger pKi. Mark your answer with the label of the selected entry.
// result 1
(1: 9.42, 2: 9.06)

---

Target: Human recombinant MMP-9 (Homo sapiens)
Construct: made in house; host or cells: MMP-9-transfected HT1080 cells (spent media)
Experiment: In vitro MMP inhibition analysis (fluorogenic peptide substrate cleavage), Ki
Assay type: biochemical
Details: Table 2
pKi: −log10 of the molar value.
readout kind: pKi

Below, each entry is followed by its recorded pKi result.
smiles_text=O=C(NO)C1(S(=O)(=O)c2ccc(-c3ccc(OCCCC(F)(F)F)cc3)cc2)CCOCC1 system_under_test="Human recombinant MMP-9 (Homo sapiens)" numeric_value=8.47
smiles_text=CCCc1ccc(-c2ccc(S(=O)(=O)C3(C(=O)NO)CCOCC3)cc2)cc1 system_under_test="Human recombinant MMP-9 (Homo sapiens)" numeric_value=9.75

[a] CCCCOc1ccc(-c2ccc(S(=O)(=O)C3(C(=O)NO)CCN(CCOC)CC3)cc2)cc1
[b] O=C(NO)C1(S(=O)(=O)c2ccc(-c3ccc(OCC(F)(F)C(F)(F)F)cc3)cc2)CCOCC1
// query Returns: the argument ( a or b ) having the larger pKi. Indicate your choice by writing its label.
// result a
(a: 9.82, b: 9.12)

---

Molecular target: Human recombinant MMP-14 (Homo sapiens)
Construct: The catalytic domain enzyme was expressed in E. coli inclusion bodies, solubilized in urea; made in house
Assay: In vitro MMP inhibition analysis (fluorogenic peptide substrate cleavage), Ki
Assay type: biochemical
Settings: Table 2
readout kind: Ki (nM)

# example entries with known answers
smiles_text=CCCCc1ccc(-c2ccc(S(=O)(=O)C3(C(=O)NO)CCOCC3)cc2)cc1 numeric_value=321
smiles_text=O=C(NO)C1(S(=O)(=O)c2ccc(-c3cnc(C4CCCC4)cn3)cc2)CCOCC1 numeric_value=7350
smiles_text=O=C(NO)C1(S(=O)(=O)c2ccc(-c3ccc(CCO)cc3)cc2)CCOCC1 numeric_value=52.6
smiles_text=CCN1CCC(C(=O)NO)(S(=O)(=O)c2ccc(-c3ccc(OCCOC)cc3)cc2)CC1 numeric_value=1790
smiles_text=O=C(NO)C1(S(=O)(=O)c2ccc(-c3ccc4c(c3)OCO4)cc2)CCOCC1 numeric_value=27.1
smiles_text=O=C(N1CCOCC1)N1CCC(C(=O)NO)(S(=O)(=O)c2ccc(-c3ccc(CCC(F)(F)C(F)(F)F)cc3)cc2)CC1 numeric_value=633

[1] O=C(NO)C1(S(=O)(=O)c2ccc(-c3cnc(-n4cccc4)cn3)cc2)CCOCC1
[2] CCN1CCC(C(=O)NO)(S(=O)(=O)c2ccc(-c3noc(-c4ccc(F)cc4)n3)cc2)CC1
// query Return label of the item with the larger Ki. Candidates: 1 , 2 . Lab note: record the label of whichever item you select.
// result 1
(1: 2940 nM, 2: 139 nM)

---

Target: Human recombinant MMP-13 (Homo sapiens)
Construct: made in house; host or cells: baculovirus / insect cells
Assay: In vitro MMP inhibition analysis (fluorogenic peptide substrate cleavage), Ki
Type: biochemical
Settings: Table 2
pKi: −log10 of the molar value.
readout kind: pKi

compound=CCCCOc1ccc(-c2ccc(S(=O)(=O)C3(C(=O)NO)CCN(CCOC)CC3)cc2)cc1 system_under_test="Human recombinant MMP-13 (Homo sapiens)" numeric_value=10.74

[P] O=C(NO)C1(S(=O)(=O)c2ccc(-c3ccc(-c4ccccc4F)cn3)cc2)CCN(C2CC2)CC1
[Q] CC(=O)Nc1cnc(-c2ccc(S(=O)(=O)C3(C(=O)NO)CCOCC3)cc2)cn1
[R] CCCCc1ccc(-c2ccc(S(=O)(=O)C3(C(=O)NO)CCN(CC)CC3)cc2)nc1
[S] O=CN1CCC(C(=O)NO)(S(=O)(=O)c2ccc(-c3ccc(CCCC(F)(F)F)cn3)cc2)CC1
// query List these items ordered by pKi, big to small. Dear reader, please state the labels in the requested order.
// result S, R, P, Q
(S: 10.70, R: 10.24, P: 9.92, Q: 7.50)

[P] COCCOc1ccc(-c2ccc(S(=O)(=O)C3(C(=O)NO)CCOCC3)cc2)cc1
[Q] O=C(NO)C1(S(=O)(=O)c2ccc(-c3ncc(CCC(F)(F)C(F)(F)F)cn3)cc2)CCOCC1
[R] O=C(NO)C1(S(=O)(=O)c2ccc(-c3cnc(CCC(F)(F)F)cn3)cc2)CCN(C2CC2)CC1
// query Number of compounds to sort: 3. Sort criterion: pKi, ascending. Please express your ranking as an ordered list of the labels.
// result R, Q, P

---

Parameter: pKi. Scope: all listed entries.
Target: Human recombinant MMP-1 (Homo sapiens)
Construct: made in house; host or cells: MMP-1-transfected HT-1080 cells (spent media)
Sequence (P03956 100-469): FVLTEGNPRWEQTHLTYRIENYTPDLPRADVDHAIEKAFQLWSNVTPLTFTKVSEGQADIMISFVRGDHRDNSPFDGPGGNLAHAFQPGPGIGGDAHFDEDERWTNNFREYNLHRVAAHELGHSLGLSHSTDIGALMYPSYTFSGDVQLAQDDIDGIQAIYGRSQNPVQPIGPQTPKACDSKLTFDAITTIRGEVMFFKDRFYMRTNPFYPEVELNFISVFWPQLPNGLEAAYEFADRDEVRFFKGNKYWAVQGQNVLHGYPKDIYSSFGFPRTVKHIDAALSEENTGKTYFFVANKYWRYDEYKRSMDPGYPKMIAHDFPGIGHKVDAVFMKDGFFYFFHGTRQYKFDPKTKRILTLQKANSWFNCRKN
Assay: In vitro MMP inhibition analysis (fluorogenic peptide substrate cleavage), Ki
Format: biochemical
Details: Table 1
pKi: −log10 of the molar value.

smiles_text=O=C(NO)C1(S(=O)(=O)c2ccc(-c3cnc(CCC(F)(F)C(F)(F)F)cn3)cc2)CCOCC1 result="< 5.00"
smiles_text=O=C(NO)C1(S(=O)(=O)c2ccc(-c3cnc(CCC(F)(F)F)cn3)cc2)CCOCC1 result="< 5.00"

We next turn to a different compound, shown below.
// query Which pKi is reported with Human recombinant MMP-1 (Homo sapiens) for this entry: COCCN1CCC(C(=O)NO)(S(=O)(=O)c2ccc(-c3cnc(CCC(C)(F)F)cn3)cc2)CC1 ?
// result < 5.00
